Test system: MST2
Construct: gene STK3
test context: concentration: 1 μM, replicates: in singlicate; n = 1;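 also: KINOMEscan kinase panel screen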
experimental endpoint: %Inh (%)
Kindly answer with a numeric value in %, unit omitted.

Field: example entries. Status: answers known.
[[record]]
molecule = "Nc1ncnc2c1nc(-c1ccccc1)n2-c1ccccc1"
output_unit = "%"
recorded_result = 20

[[record]]
molecule = "O=C(NC1CCN(c2ccnc(Nc3ccc(F)cc3)n2)C1)c1cc2ccccc2s1 (stereo not shown)"
output_unit = "%"
recorded_result = 0

[[record]]
molecule = "Cl.c1ccc(-c2ccc3c(Nc4ccc5[nH]ccc5c4)ccnc3c2)nc1"
output_unit = "%"
recorded_result = 0

[[record]]
molecule = "COc1cccc(-c2ccc3c(NC(=O)C4CC4)n[nH]c3n2)c1"
output_unit = "%"
recorded_result = 0

[[record]]
molecule = "Cc1occc1-c1ncc(OC[C@@H](N)Cc2c[nH]c3ccccc23)cc1-c1ccc2[nH]nc(C)c2c1.O=C(O)C(F)(F)F"
output_unit = "%"
recorded_result = 90


IN: // %Inh lookup, key: COc1cccc(C2=C(Nc3ccc(Cl)c(C(=O)O)c3)C(=O)NC2=O)c1
OUT: 51

IN: // %Inh lookup, key: COc1cc(Nc2nccc(N3CCC(NC(=O)Nc4cccc(C(C)=O)c4)C3)n2)cc(OC)c1OC (stereo not shown)
OUT: 31

IN: // %Inh lookup, key: Cl.Cl.NCC(NC(=O)c1cc(-c2ccccc2)c(-c2ccnc3[nH]ccc23)s1)c1ccccc1 (stereo not shown)
OUT: 0

----------
Test system: RPS6KA4(Kin.Dom.1-N-terminal)
test context: concentration: 1 μM, replicates: in singlicate; n = 1
experimental endpoint: %Inh
Number first, unit second: that is the form wanted.

Field: example entries. Status: answers known.
[[record]]
compound = "c1ccc(Oc2ccc(Nc3ccnc4cc(-c5ccc(CNCCN6CCOCC6)o5)ccc34)cc2)nc1"
recorded_result = "0%"

[[record]]
compound = "Cc1ccc(F)c(C(=O)Nc2cccc(-c3nn4ccccc4c3-c3ccnc(Nc4cccc(F)c4)n3)c2)c1F"
recorded_result = "34%"

[[record]]
compound = "COc1cc(Nc2ncc3c(C)nc(-c4cc5ccccc5[nH]4)n3n2)cc(OC)c1OC"
recorded_result = "44%"


IN: // %Inh lookup, key: Cl.c1ccc(-c2ccc3c(Nc4ccc5[nH]ccc5c4)ccnc3c2)nc1
OUT: 0%

IN: // %Inh lookup, key: CCc1ccc(-c2ccc3c(c2)-c2c(cnn2C)S(=O)(=O)N3C)cc1
OUT: 5%

IN: // %Inh lookup, key: COc1cc(Nc2nccc(-c3c(-c4cccc(NC(=O)c5c(F)cccc5F)c4)nn4ccccc34)n2)cc(OC)c1OC
OUT: 25%

IN: // %Inh lookup, key: O=C(O)C(F)(F)F.O=C(O)C(F)(F)F.O=c1[nH]ccc2nc(N[C@@H]3CCCNC3)nc(Nc3ccc(S(=O)(=O)N4CCOCC4)cc3)c12
OUT: 98.7%

IN: // %Inh lookup, key: CC(C)c1nc(-c2cccc(NS(=O)(=O)c3c(F)cccc3F)c2F)c(-c2ccnc(Nc3ccc(N4CCOCC4)nc3)n2)s1
OUT: 0%

IN: // %Inh lookup, key: COC(=O)Nc1nc2ccc(Oc3ccc(NC(=O)Nc4cc(C(F)(F)F)ccc4F)cc3)cc2n1C.Cl
OUT: 6%

IN: // %Inh lookup, key: Cc1occc1-c1ncc(OC[C@@H](N)Cc2c[nH]c3ccccc23)cc1-c1ccc2[nH]nc(C)c2c1.O=C(O)C(F)(F)F
OUT: 8%

IN: // %Inh lookup, key: O=C(Nc1ccccc1F)NC1CCN(c2ccnc(Nc3ccc(F)cc3)n2)CC1
OUT: 9%

IN: // %Inh lookup, key: Cc1cccc(Nc2nc(N[C@H]3CCNC3)ncc2C(N)=O)c1.Cl
OUT: 0%

IN: // %Inh lookup, key: COc1cc2c(cc1OCCN1CCNCC1)ncc1c3ccc(C#N)cc3[nH]c21
OUT: 0%

IN: // %Inh lookup, key: O=C(Nc1n[nH]c2nc(-c3ccc(O)cc3)ccc12)C1CC1
OUT: 8%

Data provenance: paper PMC5540273
